Biological target: CXCR4 receptor (human, UniProt P61073 1-352)
Sequence (P61073 whole entry): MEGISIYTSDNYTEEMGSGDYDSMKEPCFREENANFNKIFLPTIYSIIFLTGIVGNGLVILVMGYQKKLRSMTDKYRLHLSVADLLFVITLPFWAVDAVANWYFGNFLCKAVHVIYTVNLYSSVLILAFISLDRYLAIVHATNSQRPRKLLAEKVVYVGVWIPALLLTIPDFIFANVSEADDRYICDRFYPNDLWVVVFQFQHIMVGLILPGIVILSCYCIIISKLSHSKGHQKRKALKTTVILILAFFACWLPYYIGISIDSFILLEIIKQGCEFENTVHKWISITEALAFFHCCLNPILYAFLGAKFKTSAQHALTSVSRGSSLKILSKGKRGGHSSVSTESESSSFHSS
Assay: cell-based or functional assay
* marks the point of attachment. Palmitoyl = CCCCCCCCCCCCCCCC(=O)*
property label: Peak Ratio, CHTX, CEM, 1.0 uM
When you answer, write just the number.

Here are 3 binders together with their reported answers.
>>> data_value("Palmitoyl-MGYQKKLRSMTDK-NH2 (SMILES CCCCCCCCCCCCCCCC(=O)N[C@@H](CCSC)C(=O)NCC(=O)N[C@@H](Cc1ccc(O)cc1)C(=O)N[C@@H](CCC(N)=O)C(=O)N[C@@H](CCCCN)C(=O)N[C@@H](CCCCN)C(=O)N[C@@H](CC(C)C)C(=O)N[C@@H](CCCNC(=N)N)C(=O)N[C@@H](CO)C(=O)N[C@@H](CCSC)C(=O)N[C@H](C(=O)N[C@@H](CC(=O)O)C(=O)N[C@@H](CCCCN)C(N)=O)[C@@H](C)O) [CXCR4 i1 loop compound 36]")
0.2
>>> data_value("Palmitoyl-MGYQKKLRSMTDKYRL-NH2 (SMILES CCCCCCCCCCCCCCCC(=O)N[C@@H](CCSC)C(=O)NCC(=O)N[C@@H](Cc1ccc(O)cc1)C(=O)N[C@@H](CCC(N)=O)C(=O)N[C@@H](CCCCN)C(=O)N[C@@H](CCCCN)C(=O)N[C@@H](CC(C)C)C(=O)N[C@@H](CCCNC(=N)N)C(=O)N[C@@H](CO)C(=O)N[C@@H](CCSC)C(=O)N[C@H](C(=O)N[C@@H](CC(=O)O)C(=O)N[C@@H](CCCCN)C(=O)N[C@@H](Cc1ccc(O)cc1)C(=O)N[C@@H](CCCNC(=N)N)C(=O)N[C@@H](CC(C)C)C(N)=O)[C@@H](C)O) [Compound No. 38 (Pal-MGYQKKLRSMTDKYRL-amide)]")
0.2
>>> data_value("Palmitoyl-MGYQKKLRSMTDKY-NH2 (SMILES CCCCCCCCCCCCCCCC(=O)N[C@@H](CCSC)C(=O)NCC(=O)N[C@@H](Cc1ccc(O)cc1)C(=O)N[C@@H](CCC(N)=O)C(=O)N[C@@H](CCCCN)C(=O)N[C@@H](CCCCN)C(=O)N[C@@H](CC(C)C)C(=O)N[C@@H](CCCNC(=N)N)C(=O)N[C@@H](CO)C(=O)N[C@@H](CCSC)C(=O)N[C@H](C(=O)N[C@@H](CC(=O)O)C(=O)N[C@@H](CCCCN)C(=O)N[C@@H](Cc1ccc(O)cc1)C(N)=O)[C@@H](C)O) [CXCR4 i1 loop compound 37]")
0.04

Query block: Could you tell me which Peak Ratio, CHTX, CEM, 1.0 uM is on file for Palmitoyl-SGYQKKLRSSTD-NH2 (SMILES CCCCCCCCCCCCCCCC(=O)N[C@@H](CO)C(=O)NCC(=O)N[C@@H](Cc1ccc(O)cc1)C(=O)N[C@@H](CCC(N)=O)C(=O)N[C@@H](CCCCN)C(=O)N[C@@H](CCCCN)C(=O)N[C@@H](CC(C)C)C(=O)N[C@@H](CCCNC(=N)N)C(=O)N[C@@H](CO)C(=O)N[C@@H](CO)C(=O)N[C@H](C(=O)N[C@@H](CC(=O)O)C(N)=O)[C@@H](C)O) [CXCR4 i1 loop compound 69] ?
Result block: 1

Source: patent US20130210709A1
